These entries and their values trace back to PubChem BioAssay (NCI).

Consider the following molecules; for each one, report its GI50.
tested on: SF-539 CNS; assay: NCI tumour cell line growth inhibition, 48 h

| molecule | observed |
| --- | --- |
| O=c1c(F)cn(Cc2ccccc2CCl)c(=O)n1Cc1ccccc1CCl | 2060 nM |
| O=C(N[C@@H](C[Se][Se]C[C@H](NC(=O)c1ccc(Br)cc1F)C(=O)O)C(=O)O)c1ccc(Br)cc1F | > 100000 nM |
| COc1ccc2c(c1)/C(=C/c1cc(OC)c(OC)c(OC)c1)C(=O)N2 | 740 nM |
| CCCCCCCCCCCCCCCC[N+]1(C)CCOCC1 | 1870 nM |
| O=c1oc2ccc(I)cc2c(=O)n1-c1ccc(Cl)cc1F | 988 nM |
| c1ccc2[nH]c(-c3ccc(Nc4nc(N5CCCCC5)nc(N5CCOCC5)n4)cc3)nc2c1 | 2140 nM |
| CCCCn1c(-c2ccc(C(=O)O/N=C(\N)c3ccc4c(c3)OCO4)cc2)nc(-c2ccccc2)c1-c1ccccc1 | 3000 nM |
| O=C1OCC2=C1C(c1ccccc1)c1cc3c(cc1N2CCO)OCO3 (stereo not given) | 2410 nM |
| C(=N\Nc1nnn(Cc2ccccc2)n1)/c1ccccc1 | 3290 nM |

Now let's try a different one.
Provide only the value of recorded GI50 for O=S(=O)(NCCCNc1nccc(-c2c(-c3ccc(F)cc3)nc3sccn23)n1)c1ccc2ccccc2c1
> 100000 nM

* * *

system: OVCAR-4 ovarian; experiment: NCI tumour cell line growth inhibition, 48 h; in the data active = GI50 below about 0.43 µM; inactive = the rest
Thanks in advance; please answer with one of these: true (1) = active, false (0) = inactive

| query.smiles | qualitative.label |
| --- | --- |
| CN(C)C(=O)O[C@H]1CN[C@H](C#Cc2cc3ncnc(Nc4ccc(OCc5cccc(F)c5)c(Cl)c4)c3s2)C1 | false (0) |
| c1ccc2[nH]c(-c3ccc(Nc4nc(N5CCCCC5)nc(N5CCOCC5)n4)cc3)nc2c1 | false (0) |

API: the following record is the query input.
Called result for CN1/C(=C\C=C\C2=[N+](C)c3ccccc3C2(C)C)C(C)(C)c2ccccc21
true (1)

* * *

system: 786-0 renal; assay: NCI tumour cell line growth inhibition, 48 h
Consider the following molecules; for each one, report its TGI.

Example entries begin here.
| molecule | TGI |
| --- | --- |
| C\C(=N/N=C1/C(=C\N(C)C)C(=O)NC(=O)N1C)c1ccc(Cl)cc1 | > 100 µM |
| Cc1ccc(-c2nc3nc(-c4ccc(F)cc4)nc(N4CCCNCC4)c3o2)cc1 | 3.56 µM |
| O=C(O)[C@H](c1ccccc1)[C@@H](C(=O)O)c1ccccc1 | > 100 µM |
| CN1/C(=C\C=C\C2=[N+](C)c3ccccc3C2(C)C)C(C)(C)c2ccccc21 | 5.44 µM |
| COCCOCCOC1=CC(=O)c2c(O)ccc(O)c2C1=O | 3.2 µM |
| Cn1cc(C2=C(c3cn(C4CCN(Cc5ccccn5)CC4)c4ccccc34)C(=O)NC2=O)c2ccccc21 | > 91.1 µM |
| CC(=O)c1ccc(O)c(CN(C2CCCCC2)C2CCCCC2)c1O | > 100 µM |
| CN(C)CCC(=O)/C=C\c1ccccc1 | 29.8 µM |
| Cc1c(C(=O)O)oc2ccc([N+](=O)[O-])cc12 | > 100 µM |
| O=c1[nH]c(=O)n(C2CC(O)C(CO)O2)cc1OCc1ccccc1 (configuration not stated) | > 100 µM |

State recorded TGI for all listed molecules.
1. c1ccc(N2N=C(c3ccco3)CC2c2ccco2)cc1 (configuration not stated)
2. CCOC(=O)/C=C(\C(=O)OCC)n1ccc(=O)n(Cc2cn(COCCOC(C)=O)nn2)c1=O
3. CO[C@]12C[C@H](CNC(=O)c3ccc[nH]3)O[C@H]1NC(=O)N2
4. Nc1ncnc2c1ncn2CC(O)CO (configuration not stated)
5. O=[N+]([O-])c1ccc(-c2ccc(-c3csc(Nc4ccccc4)n3)o2)cc1
6. CCOC(=O)C1SC(=Nc2ccc(Cl)cc2)N=C1C (configuration not stated)
7. CCC(C(=O)C(=O)OC)P1(=O)OC(C)(C)CN1C(C)(C)C (configuration not stated)
8. O=C(Nc1ccc(Cl)c(Cl)c1)NS(=O)(=O)c1cnccc1Oc1ccc(F)cc1

> 100 µM
32.9 µM
> 100 µM
> 100 µM
30.9 µM
30.7 µM
> 100 µM
70.9 µM

State recorded TGI for all listed molecules.
1. O=C1c2ccccc2NC(=S)[C@@H]2CCCN12
2. C[n+]1c(-c2ccc(/C=C/C=N\NC(=O)c3ccc(C(=O)N/N=C\C=C\c4ccc(-c5cn6ccccc6[n+]5C)cc4)cc3)cc2)cn2ccccc21
3. COc1ccc2c(c1)/C(=C/c1cc(OC)c(OC)c(OC)c1)C(=O)N2
4. O=c1cc(-c2ccccc2)oc2c(-c3cc(Cl)cc4c(=O)cc(-c5ccccc5)oc34)cc(Cl)cc12

> 100 µM
> 56.2 µM
> 94.3 µM
> 100 µM

* * *

test system: SK-OV-3 ovarian; assay: NCI tumour cell line growth inhibition, 48 h
Consider the following molecules; for each one, report its GI50.

| molecule | GI50 |
| --- | --- |
| COc1cnc2c(c1)C(=O)c1c-2n(CCCN2CCN(C)CC2)c(=O)c2cc([N+](=O)[O-])ccc12 | 1.8 µM |
| COC(=O)C1(C)Cc2cc(OC(C)=O)c(OC(C)=O)cc2N1 (stereo not drawn) | > 87.4 µM |

State recorded GI50 for all listed molecules.
1. O=C1OCC2=C1C(c1ccccc1)c1cc3c(cc1N2CCO)OCO3 (stereo not drawn)
2. N#Cc1ccc(NC(=O)C(CC(=O)OCc2ccccc2)NC(=O)OCc2ccccc2)cc1 (stereo not drawn)
3. COc1ccc(CN2C3CC2CN(c2ccc(-c4cc(OCC(C)(C)O)cn5ncc(C#N)c45)cn2)C3)cn1
4. O=c1c(F)cn(Cc2ccccc2CCl)c(=O)n1Cc1ccccc1CCl
5. Oc1ccccc1-c1nn(CNc2ccccc2Cl)c(=S)o1

8.28 µM
> 100 µM
5.64 µM
5.88 µM
> 100 µM

Please indicate recorded GI50 of CCCCn1c(-c2ccc(C(=O)O/N=C(\N)c3ccc4c(c3)OCO4)cc2)nc(-c2ccccc2)c1-c1ccccc1 measured with SK-OV-3 ovarian.
7.13 µM

* * *

test system: HT29 colon; test: NCI tumour cell line growth inhibition, 48 h
readout: log10 TGI (log10 of the value in µM)
Short version: log10 scale, TGI, µM.

Example entries begin here.
| compound | measurement.target | readout | observed |
| --- | --- | --- | --- |
| CC(C)(Oc1ccc(/C=C/C(=O)c2ccc(Cl)cc2)cc1)C(=O)Nc1c(Cl)cccc1Cl | HT29 colon | log10 TGI | 1.45 |
| COc1ccc(C(=O)c2ccc([As]=O)cc2)cc1 (centres undefined) | HT29 colon | log10 TGI | -0.63 |
| COc1cc2c(cc1OC)-c1cc3ccccc3c(=O)n1CC2 | HT29 colon | log10 TGI | 2.00 |
| Cn1c2c(c3ccccc31)CCN(CCN1CCN(c3cccc(Cl)c3)CC1)C2=O | HT29 colon | log10 TGI | 1.61 |
| c1ccc2[nH]c(-c3ccc(Nc4nc(N5CCCCC5)nc(N5CCOCC5)n4)cc3)nc2c1 | HT29 colon | log10 TGI | 0.75 |

State recorded log10 TGI for all listed compounds.
1. O=C(N/N=C/c1ccc(Br)cc1)N/N=C/c1ccc(Br)cc1
2. COCCOCCOC1=CC(=O)c2c(O)ccc(O)c2C1=O
3. CN(C)CC1CCC(CN(C)C)C1=O (centres undefined)
4. O=c1oc2ccc(I)cc2c(=O)n1-c1ccc(Cl)cc1F
5. Cc1cc(I)cc(CN(C)CCCN2CCCC2)c1O
6. COC(=O)c1cc(C#N)[nH]c1-c1cc(Br)cs1

1: 1.41; 2: 0.25; 3: 1.21; 4: 1.27; 5: 1.39; 6: 1.50

* * *

Consider the following compounds; for each one, report its TGI.
system: HT29 colon; experiment: NCI tumour cell line growth inhibition, 48 h
Give bare numbers, in µM.

| query.smiles | TGI, µM |
| --- | --- |
| O=c1cc(/C=C/c2ccccc2)[nH]c2cc3c(cc12)OCO3 | 5.58 |
| O=C(O)[C@@H](Cc1ccc2ccccc2c1)NC(=O)n1c2ccccc2c2ccccc21 | 8.33 |

Please indicate recorded TGI of COc1cc(NCCCCCCCNC(C)C)c2nccc(C)c2c1 measured with HT29 colon.
16.4

* * *

Consider the following compounds; for each one, report its TGI.
test system: SNB-75 CNS; experiment: NCI tumour cell line growth inhibition, 48 h

State recorded TGI for all listed compounds.
1. NC(=O)N/N=C1\CC2C3CC4C2C4C13 (stereo unspecified)
2. O=c1c(F)cn(Cc2ccccc2CCl)c(=O)n1Cc1ccccc1CCl
3. c1c[nH]c(CN2CCOCC2)n1
4. C/C(=N\NC(=O)CC#N)c1c(O)cc(C)oc1=O
5. O=C(O)[C@H](c1ccccc1)[C@@H](C(=O)O)c1ccccc1
6. O=C(O)c1ccc(C2C(=O)N[C@@H]3CCC[C@H]23)cc1 (stereo partly specified)

1. > 100 µM
2. 6.36 µM
3. > 100 µM
4. > 100 µM
5. > 100 µM
6. > 100 µM
